tested-target: T1, rhesus monkey CD22-ECD-His protein (rhesus monkey, UniProt H9G1X2 18-686)
T1 construct: extracellular domain; also called monkey CD22 protein
T1 sequence: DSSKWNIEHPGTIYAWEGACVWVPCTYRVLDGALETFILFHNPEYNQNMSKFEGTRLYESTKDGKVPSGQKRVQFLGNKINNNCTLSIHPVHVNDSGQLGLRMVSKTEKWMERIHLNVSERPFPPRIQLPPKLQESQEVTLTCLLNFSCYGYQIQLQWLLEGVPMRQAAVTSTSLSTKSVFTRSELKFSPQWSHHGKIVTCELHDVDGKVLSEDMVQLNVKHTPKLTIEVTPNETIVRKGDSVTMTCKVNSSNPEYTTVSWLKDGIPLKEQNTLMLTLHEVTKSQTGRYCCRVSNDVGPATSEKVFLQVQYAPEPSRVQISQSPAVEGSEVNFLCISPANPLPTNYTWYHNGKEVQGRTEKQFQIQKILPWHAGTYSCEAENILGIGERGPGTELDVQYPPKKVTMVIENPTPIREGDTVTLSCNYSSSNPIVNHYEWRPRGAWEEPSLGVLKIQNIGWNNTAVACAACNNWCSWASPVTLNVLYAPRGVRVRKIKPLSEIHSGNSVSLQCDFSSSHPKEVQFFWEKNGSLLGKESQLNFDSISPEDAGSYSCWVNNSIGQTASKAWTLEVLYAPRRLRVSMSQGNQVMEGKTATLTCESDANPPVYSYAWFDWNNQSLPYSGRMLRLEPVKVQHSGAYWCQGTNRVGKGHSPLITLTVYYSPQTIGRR
assay-name: SPR (Biacore), antibody captured on Protein A chip, rhesus CD22 in solution
property-measured: koff (s⁻¹)
Give just the numeric value; s⁻¹ need not be written.

Look up koff: F1.216.2 (antibody, human IgG1, kappa, V domains shown, Chimeric IgG1 kappa) VH: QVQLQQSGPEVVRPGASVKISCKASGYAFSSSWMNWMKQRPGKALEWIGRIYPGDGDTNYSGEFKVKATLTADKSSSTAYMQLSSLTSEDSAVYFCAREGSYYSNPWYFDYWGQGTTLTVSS VL: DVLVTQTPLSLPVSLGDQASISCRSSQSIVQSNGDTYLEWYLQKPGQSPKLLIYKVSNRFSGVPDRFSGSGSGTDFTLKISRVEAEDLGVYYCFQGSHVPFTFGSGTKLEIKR 0.000538
